test: qHTS assay to identify small molecule agonists of the vitamin D receptor (VDR) signaling pathway - cell viability counter screen (AID 743224); conditions: VDR-bla HEK293T viability, CellTiter-Glo luminescence, 16 h; series mostly up to 62.6 µM; further: nearly all actives have a fitted effect of over 50% in size
Inconclusive results are not listed. Calls of active or inactive are those of the source. The call rests on the fitted dose curve; in most records, active means well fitted cell-killing curve with a large enough effect in the repeat runs; inconclusive means weak or mixed curves, or effect the other way; inactive means no such curve, though single readings can be large or run the other way.
Write down one outcome, taken from yes (1) for active, no (0) for inactive

Check out these entries, answers already filled in.
INSERT INTO results (compound, assigned_label) VALUES
  ('O=C1CCC(=O)O1', 'no (0)'),
  ('C/C=C/C=C/CO', 'no (0)'),
  ('CC(COCCO)OCCO (stereo not drawn)', 'no (0)');

Turning now to a further record.
In: Could you check what this test reported for Clc1ccc(Cn2c(CN3CCCC3)nc3ccccc32)cc1 ?
Out: no (0)
